- tested.on: Fructose-bisphosphate aldolase (Mycobacterium tuberculosis (strain ATCC 25618 / H37Rv)) (UniProt P9WQA3)
- Sequence (P9WQA3 whole entry, looked up): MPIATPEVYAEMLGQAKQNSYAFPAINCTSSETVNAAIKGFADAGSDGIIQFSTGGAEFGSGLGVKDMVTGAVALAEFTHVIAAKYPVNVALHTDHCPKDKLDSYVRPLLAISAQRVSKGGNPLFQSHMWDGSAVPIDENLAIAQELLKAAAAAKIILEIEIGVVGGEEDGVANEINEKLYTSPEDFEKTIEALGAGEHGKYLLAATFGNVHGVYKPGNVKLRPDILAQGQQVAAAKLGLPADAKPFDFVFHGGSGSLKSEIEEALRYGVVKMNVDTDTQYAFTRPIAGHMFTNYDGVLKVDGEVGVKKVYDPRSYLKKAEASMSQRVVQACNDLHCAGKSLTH
- procedure.summary: M. tuberculosis aldolase blockers, biochemical, fluorescence, strain H37Rv, confirmation (AID 651616);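 note: 0% = vehicle wells and 100% = reference inhibitor wells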
- experimental.parameters: purified M. tuberculosis FBA, fluorescence read-out, at 1 µM, stronger effect = higher value
Screen size: about 5,600 compounds; about 4,400 (79%) were called active. The set was probably picked from earlier hits. A selection follows.
Response key: Satisfied means inhibition >= 90%; Not satisfied means inhibition < 90%.

{"compound": "COCCCn1c(CCC(=O)O)ccc1-c1ccc(F)cc1", "classification": "Not satisfied"}

Is inhibition at least 90%? Consider "CN(C)S(=O)(=O)c1ccc(N/C=C(\[N+](=O)[O-])S(=O)(=O)c2ccccc2)cc1"
Not satisfied

----------
Readings of inhibition for the listed molecules
- tested.on: Fructose-bisphosphate aldolase (Mycobacterium tuberculosis (strain ATCC 25618 / H37Rv)) (UniProt P9WQA3)
- procedure.summary: M. tuberculosis aldolase blockers, biochemical, fluorescence, strain H37Rv, confirmation (AID 651616);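 note: 0% = vehicle wells and 100% = reference inhibitor wells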
- experimental.parameters: purified M. tuberculosis FBA, fluorescence read-out, at 1 µM, stronger effect = higher value
The campaign covered roughly 5,600 compounds. About 4,400 (79%) were called active. The set was probably picked from earlier hits. Only a sample is shown.
Output spec: scalar in %, unitless text.

{"molecule": "Cc1cc(=O)oc2c1ccc1ccccc12", "inhibition / %": 88.8}
{"molecule": "CCC(C)N(C(=O)COC(=O)C1C(C(=O)OC)=C(C)NC(C)=C1C(=O)OC)C1CCS(=O)(=O)C1 (configuration not stated)", "inhibition / %": 172}

Which value of inhibition has been reported for "C[C@H]1CN([C@@H](C)CO)C(=O)c2cc(Br)cnc2O[C@H]1CN(C)S(=O)(=O)c1cccs1" in the records?
8.79

Which value of inhibition has been reported for "Cc1nc2c(-c3ccccc3)c(C)[nH]n2c(=O)c1Cl" in the records?
105

Which value of inhibition has been reported for "CCC(=O)Nc1c(S(=O)(=O)c2ccccc2)c2nc3ccccc3nc2n1Cc1ccccc1" in the records?
173

Which value of inhibition has been reported for "CCc1c(C)nc2cc(-c3cccs3)[nH]n2c1=O" in the records?
26.8

Which value of inhibition has been reported for "CCOc1ccc(-c2nnc(-c3ccco3)o2)cc1" in the records?
106

Which value of inhibition has been reported for "COC(=O)c1noc(C)c1-c1ccnn1C(=O)c1ccc(Cl)cc1" in the records?
57.6

Which value of inhibition has been reported for "Cc1nc(NCCN)c(C#N)c2c1COC(C)(C)C2" in the records?
88.6

Which value of inhibition has been reported for "Cc1ccc2nc(/C(C#N)=C\c3ccc(OC(=O)c4cccs4)cc3)[nH]c2c1" in the records?
53.5

Which value of inhibition has been reported for "Cc1cc(C)c2nc3nc(C)cc(C)c3c(N)c2c1" in the records?
41.1

Which value of inhibition has been reported for Cc1nc2ccc(NC(=O)N3CCC(c4ccccc4)C3)cc2nc1C (configuration not stated) in the records?
98.1

Which value of inhibition has been reported for "Cc1ccc(Cn2c(C)nc3c(c2=O)c2nc4ccccc4nc2n3Cc2ccco2)cc1" in the records?
55

Which value of inhibition has been reported for "CN(C)CCCn1c(N)c(C#N)c2nc(C#N)c(C#N)nc21" in the records?
85.4

Which value of inhibition has been reported for "COc1ccccc1NC(=O)COc1ccc(C(=O)OCC(=O)N(C(C)C)C(C)C)cc1OC" in the records?
0.36

Which value of inhibition has been reported for "CC(C)c1nc(N2CCOCC2)c(C#N)c2c1COC(C)(C)C2" in the records?
37.2

Which value of inhibition has been reported for "COc1ccc2nc(-c3ccccn3)ccc2c1" in the records?
116

----------
- tested.on: Fructose-bisphosphate aldolase (Mycobacterium tuberculosis (strain ATCC 25618 / H37Rv))
- procedure.summary: M. tuberculosis aldolase blockers, biochemical, fluorescence, strain H37Rv, confirmation (AID 651616);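 note: 0% = vehicle wells and 100% = reference inhibitor wells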
- experimental.parameters: purified M. tuberculosis FBA, fluorescence read-out, at 1 µM, stronger effect = higher value
Screen size: about 5,600 compounds; about 4,400 (79%) were called active. The set was probably picked from earlier hits. These entries were drawn from the full list.
Response key: satisfied means inhibition >= 90%; not satisfied means inhibition < 90%.

{"compound": "CCOc1ccc2nc(NCCNS(=O)(=O)c3ccccc3)c(C#N)cc2c1", "classification": "not satisfied"}
{"compound": "O=C(c1cc(-c2ccco2)nc2ccccc12)N(Cc1nnc(-c2ccc(Cl)cc2)o1)C1CC1", "classification": "satisfied"}
{"compound": "CCCCC(NS(=O)(=O)c1ccc(C)cc1)C(=O)Oc1ccc2c3c(c(=O)oc2c1)CCC3 (centres undefined)", "classification": "not satisfied"}
{"compound": "Cc1ccc(C2Nc3cccc4cccc(c34)N2)cc1", "classification": "satisfied"}
{"compound": "CC(C)n1c(-c2cccs2)nc2ccccc21", "classification": "not satisfied"}
{"compound": "COc1ccc2oc(=O)c(C(=O)N3CCCC3)cc2c1", "classification": "satisfied"}
{"compound": "Oc1ccccc1C1=NN(c2ccccc2)C(c2ccccc2)C1 (centres undefined)", "classification": "satisfied"}
{"compound": "Cc1ccc(-c2nc3ccccc3c(=O)n2-c2ccc(Br)cn2)cc1", "classification": "satisfied"}
{"compound": "CN(C)c1ccc(/C=N/NC(=O)C(O)c2ccc(Br)cc2)cc1 (centres undefined)", "classification": "not satisfied"}
{"compound": "CCCNC(=O)c1c(N)n(-c2ccc(S(N)(=O)=O)cc2)c2nc3ccccc3nc12", "classification": "not satisfied"}

Is inhibition at least 90%? Consider "O=C1OCCN1C(=O)[C@H]1[C@H](c2ccc(F)cc2)C(c2ccccc2)=NN1c1ccc(Br)cc1"
not satisfied

Is inhibition at least 90%? Consider "O=C(NCCN1CCOCC1)c1cc(-c2cccs2)nc2ccccc12"
not satisfied

Hey, just so you know, these numbers are from PubChem BioAssay AID651616.
